Tested on: Fam108B (ABHD17B) serine hydrolase [Mus musculus]
Assay method text: mouse Fam108B serine hydrolase inhibitors, primary screen, counter-screen for RBBP9 inhibitor project, biochemical, fluorescence polarization (AID 1947);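 also: inhibitors lower polarization as less probe binds the enzyme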
Test settings: recombinant Fam108B, FP-Rh probe fluorescence polarization; at 9.51 µM
The campaign covered roughly 300,000 compounds. About 990 (0.33%) were called active.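 The calls were made as follows: active = inhibition above the screen mean inhibition plus 3 SD, computed separately per campaign (cut at about 18% in these data); inactive = the rest.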 Many of the other results were omitted from the sample, so actives are more common in it than they were.
Pick one: TRUE (active), FALSE (inactive)

Look over these answered cases.
> print(dat)
                                    compound                           measured.target  label.value
 1  O=C(NNc1c2ccccc2nc2ccccc12)c1cc2ccccc2cc1O  Fam108B (ABHD17B) serine hydrolase [Mus musculus]         TRUE
 2  CC(/C=N/NC(=O)c1cc(-c2ccc3ccccc3c2)n[nH]1)=C\c1ccco1  Fam108B (ABHD17B) serine hydrolase [Mus musculus]        FALSE
 3  COc1ccc(-c2nc(CS(=O)CC(=O)NCc3ccccn3)c(C)o2)cc1 (stereo not drawn)  Fam108B (ABHD17B) serine hydrolase [Mus musculus]         TRUE
 4  Fc1ccc(/C=N/Nc2nc(-c3cccnc3)nc3ccccc23)cc1  Fam108B (ABHD17B) serine hydrolase [Mus musculus]        FALSE
 5  O=C(COC(=O)/C=C/c1cn(-c2ccccc2)nc1-c1cccnc1)Nc1ccc(Cl)cc1Cl  Fam108B (ABHD17B) serine hydrolase [Mus musculus]        FALSE
 6         COc1c(F)c(F)c(-c2csc(N)n2)c(F)c1F  Fam108B (ABHD17B) serine hydrolase [Mus musculus]        FALSE
 7  O=C(OCC1OC(Oc2ccc(O)cc2)C(O)C(O)C1O)c1ccccc1 (stereo not drawn)  Fam108B (ABHD17B) serine hydrolase [Mus musculus]        FALSE
 8        O=C(N/N=C/c1cccnc1)c1cc2ccccc2cc1O  Fam108B (ABHD17B) serine hydrolase [Mus musculus]        FALSE
 9  CC(O)c1ccc(OCCN(C)c2ccccn2)cc1 (stereo not drawn)  Fam108B (ABHD17B) serine hydrolase [Mus musculus]        FALSE
10      c1ccc2c(-c3nn4nnnc4c4ccccc34)cccc2c1  Fam108B (ABHD17B) serine hydrolase [Mus musculus]        FALSE

Task: Record request — test call for "COc1ccccc1C1=Nc2cccc3cccc(c23)N1"
Result: FALSE

Task: Record request — test call for "CCOc1ccc(NC(=O)COc2ccc(S(=O)(=O)N3CCCC3)cc2)cc1"
Result: FALSE

Task: Record request — test call for "COC(C[C@@H](O)C[C@H](O)[C@H](C)OCc1ccccc1)OC"
Result: FALSE

Task: Record request — test call for "O=C(CCCN1C(=O)/C(=C/c2cccs2)SC1=S)Nc1ccc(O)cc1"
Result: FALSE

Task: Record request — test call for "FC(F)(F)c1cc(-c2ccco2)nc(NCc2ccc(Cl)cc2)n1"
Result: FALSE

Task: Record request — test call for "O=C(COC(=O)c1cc(=O)[nH]c2ccccc12)Nc1nc(-c2cccc(Br)c2)cs1"
Result: FALSE

Task: Record request — test call for "COc1ccc(CNC(=O)CN(C(=O)c2csnn2)c2cnc3ccccc3c2)cc1"
Result: FALSE

Task: Record request — test call for "Cc1nc2ccccc2nc1N/N=C/c1ccc(O)cc1O"
Result: FALSE

Task: Record request — test call for "CCc1ccc2ncc(C(=O)c3ccccc3)c(N3CCOCC3)c2c1"
Result: FALSE

Task: Record request — test call for "CC(C)CCN1CCN=C1N(C)C"
Result: FALSE

Task: Record request — test call for N=C1C(=O)OCC1c1ccccc1NC(=O)CN1CCCCC1 (stereo not drawn)
Result: FALSE

Task: Record request — test call for "S=C(Nc1ccc2c(c1)OCO2)N1CCCC1"
Result: FALSE

Task: Record request — test call for "Cc1ccc(-c2ccnc3[nH]n(-c4ccccc4)c(=O)c23)cc1"
Result: FALSE

These entries and their values trace back to PubChem BioAssay AID1947.
